Biological target: Tyrosine-protein phosphatase non-receptor type 6 (Homo sapiens)
Sequence (P29350 whole entry): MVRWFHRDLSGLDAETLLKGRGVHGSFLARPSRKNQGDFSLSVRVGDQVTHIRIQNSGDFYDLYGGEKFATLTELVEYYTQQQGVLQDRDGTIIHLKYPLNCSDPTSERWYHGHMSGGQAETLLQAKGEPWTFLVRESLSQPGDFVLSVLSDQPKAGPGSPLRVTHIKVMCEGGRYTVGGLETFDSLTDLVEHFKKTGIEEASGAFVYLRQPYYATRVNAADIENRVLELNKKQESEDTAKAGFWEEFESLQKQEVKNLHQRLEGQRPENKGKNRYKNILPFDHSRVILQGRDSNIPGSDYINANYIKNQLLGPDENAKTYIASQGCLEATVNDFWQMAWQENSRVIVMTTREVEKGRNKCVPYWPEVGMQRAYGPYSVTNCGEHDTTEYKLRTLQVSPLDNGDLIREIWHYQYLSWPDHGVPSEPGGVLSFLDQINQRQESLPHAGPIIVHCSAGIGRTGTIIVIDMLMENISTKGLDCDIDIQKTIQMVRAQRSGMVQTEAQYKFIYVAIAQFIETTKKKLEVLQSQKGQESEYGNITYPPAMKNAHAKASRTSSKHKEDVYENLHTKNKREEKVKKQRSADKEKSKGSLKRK
Assay: Inhibition of SHP1 (unknown origin)
Details: read-out: IC50
pIC50: −log10 of the molar value.
assay.readout: pIC50

Please review the entries below; each comes with its answer.
1. O=C(OC1CSSC1)c1ccco1: 4.80
2. NS(=O)(=O)c1ccc(C(=O)OC2CSSC2)cc1: 4.85
3. O=C(OC1CSSC1)c1cc([N+](=O)[O-])cc([N+](=O)[O-])c1: 4.61

(P) O=C(OC1CSSC1)c1ccoc1
(Q) O=C(OC1CSSC1)c1cc(Br)ccc1Br
Compare P and Q and name the one whose reported pIC50 is smaller. Output the label that corresponds to your choice.
P

----------
Biological target: Tyrosine-protein phosphatase non-receptor type 1 (Homo sapiens)
Experiment: Inhibition of PTP1B (unknown origin)
Conditions: read-out: IC50
pIC50: −log10 of the molar value.
assay.readout: pIC50

Some entries whose results are on file:
1) O=C(OC1CSSC1)c1cc2ccccc2[nH]1: 4.62
2) O=S1(=O)C[C@H](O)CS1: 4.76

(A) O=C(OC1CSSC1)c1ccoc1
(B) NS(=O)(=O)c1ccc(C(=O)OC2CSSC2)cc1
(C) O=C(OC1CS[S+]([O-])C1)c1cc(Br)ccc1Br (stereo not given)
Ordering criterion: pIC50; begin with the maximum. Please respond by ranking the labels in the order requested.
C, B, A
(C: 5.34, B: 4.60, A: 4.11)

----------
Target: Tyrosine-protein phosphatase non-receptor type 11 (Homo sapiens, UniProt Q06124)
Assay: Inhibition of SHP2 (unknown origin)
Conditions: read-out: IC50
pIC50: −log10 of the molar value.
assay.readout: pIC50

1. O=C(OC1CSSC1)c1ccco1: 4.65
2. O=C(OC1CSSC1)c1cc([N+](=O)[O-])cc([N+](=O)[O-])c1: 4.86

(I) O=C(OC1CSSC1)c1ccoc1
(II) NS(=O)(=O)c1ccc(C(=O)OC2CSSC2)cc1
Pick one: I or II . Which has the bigger pIC50 number? Kindly state the label of the option you pick.
II
(II: 4.87, I: 4.67)

----------
Target: Tyrosine-protein phosphatase non-receptor type 1 (Homo sapiens, UniProt P18031)
Sequence (P18031 whole entry): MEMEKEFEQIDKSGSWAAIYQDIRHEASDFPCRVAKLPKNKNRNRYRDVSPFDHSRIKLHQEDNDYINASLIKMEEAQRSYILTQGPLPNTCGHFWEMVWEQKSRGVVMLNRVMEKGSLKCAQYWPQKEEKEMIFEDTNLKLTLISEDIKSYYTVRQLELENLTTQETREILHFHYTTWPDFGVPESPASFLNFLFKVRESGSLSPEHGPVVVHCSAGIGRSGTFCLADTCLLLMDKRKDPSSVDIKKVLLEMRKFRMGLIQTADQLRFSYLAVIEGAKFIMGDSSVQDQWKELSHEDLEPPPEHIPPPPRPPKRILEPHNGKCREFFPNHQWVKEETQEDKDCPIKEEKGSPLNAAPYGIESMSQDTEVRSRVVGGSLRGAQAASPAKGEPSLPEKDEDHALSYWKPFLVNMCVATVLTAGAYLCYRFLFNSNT
Assay: Inhibition of PTP1B (unknown origin)
Details: read-out: IC50
assay.readout: IC50 (µM)

The following molecules have reported results that may help.
1) O=C(OC1CSS(=O)(=O)C1)c1cccc(Br)c1 (stereo not drawn): 29
2) O=C(OC1CSSC1)c1ccc([N+](=O)[O-])cc1: 22.6
3) O=C(OC1CS[S+]([O-])C1)c1ccc(I)cc1 (stereo not drawn): 22.4
4) O=C(OC1CSSC1)c1ccccc1I: 48.2
5) O=C(OC1CSSC1)c1ccco1: 35.2
6) O=C(OC1CSSC1)c1cc(Br)ccc1Br: 25.6

(P) O=C(Cc1ccc(Br)cc1)OC1CS[S+]([O-])C1 (stereo not drawn)
(Q) O=C(OC1CSSC1)c1ccc(Br)cc1
(R) O=C(OC1CS[S+]([O-])C1)c1cccc(Br)c1 (stereo not drawn)
Provide the items ranked by increasing IC50. Order the labels as requested and list them.
Q, R, P
(Q: 11 µM, R: 28 µM, P: 45 µM)

----------
Biological target: Tyrosine-protein phosphatase non-receptor type 2 (Homo sapiens, UniProt P17706)
Sequence (P17706 whole entry): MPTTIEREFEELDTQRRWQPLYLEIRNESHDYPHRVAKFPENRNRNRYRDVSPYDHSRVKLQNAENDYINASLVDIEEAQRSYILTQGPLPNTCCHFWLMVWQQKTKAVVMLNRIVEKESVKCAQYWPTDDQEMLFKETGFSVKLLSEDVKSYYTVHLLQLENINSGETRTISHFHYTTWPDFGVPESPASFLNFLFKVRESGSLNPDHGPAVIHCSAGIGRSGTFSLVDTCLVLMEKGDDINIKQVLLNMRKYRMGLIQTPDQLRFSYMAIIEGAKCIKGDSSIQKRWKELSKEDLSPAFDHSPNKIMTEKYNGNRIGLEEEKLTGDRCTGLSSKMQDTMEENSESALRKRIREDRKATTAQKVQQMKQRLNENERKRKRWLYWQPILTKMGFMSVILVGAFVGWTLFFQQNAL
Assay: Inhibition of TCPTP (unknown origin)
Conditions: read-out: IC50
assay.readout: IC50 (µM)

1. NS(=O)(=O)c1ccc(C(=O)OC2CSSC2)cc1: 40.7

(a) O=C(OC1CSSC1)c1ccccc1I
(b) O=C(OC1CSSC1)c1ccco1
# compare IC50 for a vs b ; return the one with the smaller value Respond with the label that goes with your answer.
a
(a: 42.1 µM, b: 75.4 µM)

(I) O=C(OC1CS[S+]([O-])C1)c1ccccc1I (stereo not drawn)
(II) O=C(OC1CSSC1)c1cc(Br)ccc1Br
(III) O=C(OC1CS[S+]([O-])C1)c1cc(Br)ccc1Br (stereo not drawn)
Sort low-to-high on IC50, please. Provide the ranking by listing each label in its place in the requested order.
III, II, I

Just for reference, ChEMBL document CHEMBL2417434 is where these values come from.
